B1: TSN (parent)
chain: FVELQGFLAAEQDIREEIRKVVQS

Variants of: B1
Assay: protein stability index of a GFP-peptide fusion (GPS, HEK-293T) (PSI 1-6); higher = more stable;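 also: lentivirally expressed fusions sorted by FACS into six bins by GFP to DsRed ratio, PSI derived from sequencing read proportions per bin multiplied by bin number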
Conditions: c terminus: a fixed tail appended
readout: protein stability index

>  <inputSequence>
FVELQGFLAAEQDIREEITKVVQS [R19T]

>  <valueReported>
2.25

$$$$
>  <inputSequence>
FVELQGALAAEQDIREEIRKVVQS [F7A]

>  <valueReported>
1.64

$$$$
>  <inputSequence>
FVELQGFLAAEQDIREEIRSVVQS [K20S]

>  <valueReported>
1.96

$$$$
>  <inputSequence>
FVELQGFLAAWQDIREEIRKVVQS [E11W]

>  <valueReported>
3.13

$$$$
>  <inputSequence>
FVELQGFLAAEQDIREEIRKVVQK [S24K]

>  <valueReported>
1.42

$$$$
>  <inputSequence>
FVELQGFLAAEQDIREEIRCVVQS [K20C]

>  <valueReported>
2.75

$$$$

This collection of values is drawn from the supplement of paper PMC10567573.
